assay: RP, Thermo Scientific Acclaim RSLC 120 C18, 100 × 2.1 mm, 2.2 µm, 30 °C, 0.2 mL/min, estimated dead time 1.1 min; A: 90% water + 10% methanol + 0.01% formic acid + 5 mM ammonium formate, pH 3.61; B: methanol + 0.01% formic acid + 5 mM ammonium formate, pH 3.61; gradient (min/%B) 0/1 1/1 2/39 13/99.9 15/99.9 15.1/1 20.1/1; details: stereoisomer not certain
Field 'label' (enum: YES / NO). Set to YES when LC retention time is strictly under 5 min; else NO.

Past entries and their recorded results:
{"compound": "O=C1C(Cl)C(CCl)CN1c1cccc(C(F)(F)F)c1 (stereo not given)", "classification": "NO"}
{"compound": "CCN(CC)C(=O)C(C)Oc1cccc2ccccc12 (stereo not given) [Napropamide]", "classification": "NO"}
{"compound": "Nc1ncnc2nc[nH]c12", "classification": "YES"}
{"compound": "CNCCC(Oc1ccc(C(F)(F)F)cc1)c1ccccc1 (stereo not given)", "classification": "NO"}

API: query returns whether the compound falls strictly under 5 min in LC retention time. Query: CCCN(CCC)CCc1c[nH]c2ccccc12
NO

====

test: RP, Thermo Scientific Acclaim RSLC 120 C18, 100 × 2.1 mm, 2.2 µm, 30 °C, 0.2 mL/min, estimated dead time 1.1 min; A: 90% water + 10% methanol + 0.01% formic acid + 5 mM ammonium formate, pH 3.61; B: methanol + 0.01% formic acid + 5 mM ammonium formate, pH 3.61; gradient (min/%B) 0/1 1/1 2/39 13/99.9 15/99.9 15.1/1 20.1/1; conditions: stereoisomer not certain
Reported LC retention time values are given for each entry in this list.
# number only, unit min dropped from output

Example results:
{"compound": "CCCCCn1cc(C(=O)c2ccc(OC)c3ccccc23)c2ccccc21", "result_units": "min", "value": 12.7}
{"compound": "O=C(CCCl)NCc1ccccc1 [Beclamide]", "result_units": "min", "value": 6.27}
{"compound": "COc1cccc(N(C)C(=S)Oc2cccc(C(C)(C)C)c2)n1", "result_units": "min", "value": 12.5}
{"compound": "CC(C)C(NC(=O)c1nn(CCCCCCl)c2ccccc12)C(N)=O (stereo unspecified)", "result_units": "min", "value": 9.99}
{"compound": "CCCc1nn(C)c2c(=O)[nH]c(-c3cc(C(=O)CCl)ccc3OCC)nc12", "result_units": "min", "value": 10.2}
{"compound": "CN(C)C(=O)Nc1ccc(Cl)c(Cl)c1", "result_units": "min", "value": 8.64}

# input compound: CC(C)(Oc1ccc(CCNC(=O)c2ccc(Cl)cc2)cc1)C(=O)O [Bezafibrate] ; wanted: its LC retention time
8.77

# input compound: CCCCCCCC(C)(C)c1ccc(C2CCCC(O)C2)c(O)c1 (stereo unspecified) ; wanted: its LC retention time
13.5

# input compound: CNC(=O)ON=CC(C)(C)S(C)(=O)=O ; wanted: its LC retention time
3.75

# input compound: CNC(=O)c1cc(Cl)cc(C)c1NC(=O)c1cc(Br)nn1-c1ncccc1Cl ; wanted: its LC retention time
8.7

# input compound: COC(=O)C1=C(C)NC(C)=C(C(=O)OC)C1c1ccccc1[N+](=O)[O-] ; wanted: its LC retention time
8.31

# input compound: OC(CCN1CCCCC1)(c1ccccc1)C1CC2C=CC1C2 (stereo unspecified) ; wanted: its LC retention time
7.63

# input compound: CC(C)N(C(=O)CCl)c1ccccc1 ; wanted: its LC retention time
8.25

# input compound: CNC(=C[N+](=O)[O-])NCCSCc1csc(CN(C)C)n1 ; wanted: its LC retention time
2.96

# input compound: CCCCCCCCOC(=O)c1ccccc1C(=O)OCCCCCCCC [Phthalate-Di-n-octyl] ; wanted: its LC retention time
15.3

# input compound: OCCN1CCN(CCCN2c3ccccc3Sc3ccc(Cl)cc32)CC1 ; wanted: its LC retention time
9.55

# input compound: c1ccc2c(c1)Sc1ccccc1N2CC1CN2CCC1CC2 (stereo unspecified) ; wanted: its LC retention time
8.29

# input compound: CCCCCCn1cc(C(=O)c2cccc3ccccc23)cc1-c1ccccc1 ; wanted: its LC retention time
13.3

# input compound: CCn1cc(C(=O)O)c(=O)c2ccc(C)nc21 ; wanted: its LC retention time
7.06

# input compound: Clc1ccc(C(Cn2ccnc2)OCc2c(Cl)cccc2Cl)c(Cl)c1 (stereo unspecified) ; wanted: its LC retention time
12.3

# input compound: CC(C)(C)NCC(O)c1cc(O)cc(O)c1 (stereo unspecified) ; wanted: its LC retention time
3.11

# input compound: O=C(Oc1cccc2ccccc12)c1cn(Cc2ccc(F)cc2)c2ccccc12 ; wanted: its LC retention time
12.6

# input compound: CNC(C)Cc1cccc(F)c1 (stereo unspecified) ; wanted: its LC retention time
4.39
